Catalogue of GI50 readings, one per entry.
Tested on: U-251
METHOD NOTES: NCI tumour cell line growth inhibition, 48 h
The source made the active and inactive calls. Rule as the data show it: active = GI50 up to about 1.1 µM and inactive = higher.

CN(C)CCCn1c(Cn2nc3ccccc3n2)nc2cc(C(F)(F)F)ccc21: 26.4 µM (inactive)
CC(=O)OCC1OC(O[C@@H]2C[C@H]3C(C)(C)[C@H](OC(C)=O)CC[C@]3(C)[C@H]3CC[C@]4(C)C(=CC[C@H]4[C@@H](C)C[C@@H](O)[C@H](O)C(C)(C)O)[C@@]32C)C(O)C(O)C1O (some centres undefined): 12.7 µM (inactive)
CCCCOC(=O)C1CN2C=CC=NC2=NC1(C(F)(F)F)C(F)(F)F (centres undefined): > 100 µM (inactive)

Next up:
Entry `Cc1cc(NC(=O)NC(=O)c2ccccc2NC(=O)CN)ccc1Oc1ncc(Br)cn1` : reported GI50 = ?
0.743 µM (active)
